tested on: Escherichia coli; experiment: Inhibition of Metallo-beta-lactamase VIM-2 in Escherichia coli clinical isolate assessed as MIC for meropenem antibacterial activity at 128 ug/ml (reference value: 4 ug/ml); details: dose 128.0 µg/ml
Attribute: MIC
Number in µg/mL, nothing else.

Reported MIC ( "CC1=C(C(=O)O)N2C(=O)[C@@H](NC(=O)Cc3ccccc3)[C@H]2SC1" ) = 1

Reported MIC ( "O=C(Cc1ccccc1)N[C@@H]1C(=O)N2C(C(=O)O)=C(CSCc3ccccc3)CS[C@H]12" ) = 1

Reported MIC ( "O=C(O)CSCC1=C(C(=O)O)N2C(=O)[C@@H](NC(=O)Cc3ccccc3)[C@H]2SC1" ) = 1

----------
test system: Escherichia coli; test: Inhibition of Metallo-beta-lactamase VIM-2 in Escherichia coli clinical isolate assessed as MIC for meropenem antibacterial activity at 32 ug/ml (reference value: 8 ug/ml); settings: dose 32.0 µg/ml
readout name: MIC (µg/mL)
Number in µg/mL, nothing else.

INSERT INTO assay_data (compound, observed_result) VALUES
  ('O=C(Cc1ccccc1)N[C@@H]1C(=O)N2C(C(=O)O)=C(CS[C@@H](Cc3ccccc3)C(=O)O)CS[C@H]12', 8),
  ('O=C(Cc1ccccc1)N[C@@H]1C(=O)N2C(C(=O)O)=C(CSCC(=O)c3ccccc3)CS[C@H]12', 8),
  ('O=C(Cc1ccccc1)N[C@@H]1C(=O)N2C(C(=O)O)=C(CS[C@H](Cc3ccccc3)C(=O)O)CS[C@H]12', 4),
  ('O=C(Cc1ccccc1)N[C@@H]1C(=O)N2C(C(=O)O)=C(CSCCc3ccccc3)CS[C@H]12', 8);

Would you kindly look at the next entry?
Reported MIC ( O=C(Cc1ccccc1)N[C@@H]1C(=O)N2C(C(=O)O)=C(CSC(C(=O)O)c3ccccc3)CS[C@H]12 (stereo not given in full) ) = 4

----------
Attribute: fold change (FC)
test system: Klebsiella pneumoniae; assay: Inhibition of Metallo-beta-lactamase IMP-28 in Klebsiella pneumoniae clinical isolate assessed as fold reduction in meropenem MIC at 64 ug/ml; conditions: dose 64.0 µg/ml

INSERT INTO results (molecule, observed_result) VALUES
  ('O=C(O)c1cccc(C(=O)O)n1', '> 64'),
  ('O=C(Cc1ccccc1)N[C@@H]1C(=O)N2C(C(=O)O)=C(CSC(C(=O)O)c3ccccc3)CS[C@H]12 (stereo partly drawn)', '> 64');

Reported fold change (FC) ( "O=C(Cc1ccccc1)N[C@@H]1C(=O)N2C(C(=O)O)=C(CS[C@H](Cc3ccccc3)C(=O)O)CS[C@H]12" ) = > 64

----------
system: Klebsiella pneumoniae; experiment: Inhibition of Metallo-beta-lactamase IMP-28 in Klebsiella pneumoniae clinical isolate assessed as fold reduction in meropenem MIC at 128 ug/ml; conditions: dose 128.0 µg/ml
readout name: fold change (FC)

Entry "O=C(Cc1ccccc1)N[C@@H]1C(=O)N2C(C(=O)O)=C(CS[C@H](Cc3ccccc3)C(=O)O)CS[C@H]12" under Klebsiella pneumoniae had fold change (FC) of > 64

Entry "O=C(O)c1cccc(C(=O)O)n1" under Klebsiella pneumoniae had fold change (FC) of > 64

Entry O=C(Cc1ccccc1)N[C@@H]1C(=O)N2C(C(=O)O)=C(CSC(C(=O)O)c3ccccc3)CS[C@H]12 (stereo partly drawn) under Klebsiella pneumoniae had fold change (FC) of > 64

All values here come from ChEMBL document CHEMBL5034010.
